target: Serine/threonine-protein kinase PLK1 (Homo sapiens); assay: qHTS for Inhibitors of PLK1-PDB (polo-like kinase 1 - polo-box domain): Primary Screen; conditions: Plk1 PBD binding of FITC phosphopeptide, fluorescence polarization; note: series mostly up to about 57 µM; % is set by controls: 0 for no effect and ±100 for the full control effect; nearly all actives have a fitted effect of over 65% in size
Screen size: about 360,000 compounds; about 10,000 (2.8%) were called active. Inconclusive results (about 4%) are left out. The full list was thinned out, with actives kept by preference.
For each record, write down the corresponding max response, negative = inhibition.

Task: Output measured max response, negative = inhibition for this item: "CCOC(=O)c1ccccc1CN1C(=O)c2ccccc2S1(=O)=O"
Result: -6.41% (inactive)

Task: Output measured max response, negative = inhibition for this item: "O=C(Nc1ccc(N2CCOCC2)cc1)c1cccc2c(-c3ccc(F)c(F)c3)coc12"
Result: -15% (inactive)

Task: Output measured max response, negative = inhibition for this item: CCOC(=O)C1CCCN(C(=O)c2ccc(C)c(F)c2)CC1 (stereo unspecified)
Result: -7.52% (inactive)

Task: Output measured max response, negative = inhibition for this item: "CCOC(=O)c1ccccc1NC(=O)c1c(N)n(C)c(=O)[nH]c1=O"
Result: -13.3% (inactive)

Task: Output measured max response, negative = inhibition for this item: "O=c1[nH]n2c(-c3ccccc3)nc(O)c2c2ccccc12"
Result: -5.86% (inactive)

Task: Output measured max response, negative = inhibition for this item: "O=C(/C=C/c1cc2c(cc1Br)OCO2)NCc1ccc(Cl)cc1"
Result: -5.95% (inactive)

Task: Output measured max response, negative = inhibition for this item: "Cc1ccc(C=O)c([B-](F)(F)F)c1"
Result: -2.89% (inactive)

Task: Output measured max response, negative = inhibition for this item: "CCOc1cc(C=NNC(=O)CCCC(=O)NN=Cc2ccc(O)c(OCC)c2)ccc1O"
Result: -0.399% (inactive)

Task: Output measured max response, negative = inhibition for this item: O=C(N/N=C/c1cc2c(cc1Br)OCO2)C1COc2ccccc2O1 (stereo unspecified)
Result: 6.15% (inactive)

Task: Output measured max response, negative = inhibition for this item: "Cc1cc(C)n2c(NCc3ccccc3)c(CC(C)C)nc2n1"
Result: 4.6% (inactive)

Task: Output measured max response, negative = inhibition for this item: COc1ccc(C(CNC(=O)CSc2ccccc2)N2CCOCC2)cc1 (stereo unspecified)
Result: -29.4% (inactive)

====

target: Serine/threonine-protein kinase PLK1 (Homo sapiens) (UniProt P53350); experiment: qHTS for Inhibitors of PLK1-PDB (polo-like kinase 1 - polo-box domain): Primary Screen; conditions: Plk1 PBD binding of FITC phosphopeptide, fluorescence polarization; note: series mostly up to about 57 µM; % is set by controls: 0 for no effect and ±100 for the full control effect; nearly all actives have a fitted effect of over 65% in size
Sequence (P53350 whole entry, looked up, the tested form may be a part): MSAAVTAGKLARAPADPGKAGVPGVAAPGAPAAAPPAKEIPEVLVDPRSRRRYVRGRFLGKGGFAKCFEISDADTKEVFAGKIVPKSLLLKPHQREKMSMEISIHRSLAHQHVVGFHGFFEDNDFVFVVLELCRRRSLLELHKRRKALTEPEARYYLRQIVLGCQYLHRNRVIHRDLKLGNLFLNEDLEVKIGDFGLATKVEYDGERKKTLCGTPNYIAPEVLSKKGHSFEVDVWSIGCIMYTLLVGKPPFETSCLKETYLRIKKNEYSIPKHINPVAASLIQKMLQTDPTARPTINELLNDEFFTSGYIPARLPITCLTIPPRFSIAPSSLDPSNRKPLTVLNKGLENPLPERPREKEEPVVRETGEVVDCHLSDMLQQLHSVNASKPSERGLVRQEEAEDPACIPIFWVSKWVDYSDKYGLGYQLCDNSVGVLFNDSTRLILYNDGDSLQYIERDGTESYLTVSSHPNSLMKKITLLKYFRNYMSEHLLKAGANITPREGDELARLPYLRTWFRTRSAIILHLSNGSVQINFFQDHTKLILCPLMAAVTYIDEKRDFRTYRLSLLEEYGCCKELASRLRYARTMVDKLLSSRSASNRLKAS
Screen size: about 360,000 compounds; about 10,000 (2.8%) were called active. About 4% were inconclusive and are not listed. Only a selection was taken, and actives are over-represented in it overall.
Readout label: max response, negative = inhibition (%)
Field: numeric (%). Do not append units.

Task: Output measured max response, negative = inhibition for this item: N#Cc1cccc(NC(=O)c2cc(C3CCCCN3C(=O)CCc3ccccc3)on2)c1 (configuration not stated)
Result: 4.56

Task: Output measured max response, negative = inhibition for this item: "O=C(c1cccc(F)c1)N1CCN(c2ccc([N+](=O)[O-])c(N3CCCCC3)c2)CC1"
Result: -8.34

Task: Output measured max response, negative = inhibition for this item: O=C(NCc1ccc(F)cc1)c1cc(C2CCCCN2C(=O)c2ccccn2)on1 (configuration not stated)
Result: -4.01

Task: Output measured max response, negative = inhibition for this item: "Cc1ccc(S(=O)(=O)/N=C(/Nc2ccccn2)c2ccc(Cl)cc2)cc1"
Result: -1.19

Task: Output measured max response, negative = inhibition for this item: "COc1ccc(OC)c(-n2c(=S)[nH]c3cc(C(=O)N4CCCCC4)ccc3c2=O)c1"
Result: 2.08

Task: Output measured max response, negative = inhibition for this item: CC(C)c1ccc(C(=O)OC2CCOC2=O)cc1 (configuration not stated)
Result: -4.1

Task: Output measured max response, negative = inhibition for this item: CCCNC(=O)C1(C)CCN1C(=O)Cc1ccc(-c2ccccc2)cc1 (configuration not stated)
Result: -9.86

Task: Output measured max response, negative = inhibition for this item: "Cc1ccc(-c2c(N)nc3ncccn23)cc1"
Result: 2.55

Task: Output measured max response, negative = inhibition for this item: COc1ccc(OC)c(CN2C(=O)CCC2(C)c2nnnn2Cc2ccccc2)c1 (configuration not stated)
Result: -0.666

Task: Output measured max response, negative = inhibition for this item: CC1(Cc2ccccc2C#N)C(=O)Nc2ccc(-c3ccc4[nH]ccc4c3)cc21 (configuration not stated)
Result: 2.71

Task: Output measured max response, negative = inhibition for this item: CC(Sc1ccc(S(=O)(=O)N2CCN(C)CC2)cn1)C(=O)NC1CCCC(C)C1C (configuration not stated)
Result: -3.15

Task: Output measured max response, negative = inhibition for this item: "CN(C)CCCn1c(=O)n(Cc2ccccc2)c(=O)c2c3c(sc21)CCCCC3"
Result: -1.79

Task: Output measured max response, negative = inhibition for this item: COCc1cccc(-c2csc(C(O)c3ccc(F)cc3)n2)c1 (configuration not stated)
Result: -9.74

Task: Output measured max response, negative = inhibition for this item: Cc1cccc(CN2CCN(C3CN(Cc4ccccc4)S(=O)(=O)C3)CC2)c1 (configuration not stated)
Result: 2.44

Task: Output measured max response, negative = inhibition for this item: Cc1ccccc1S(=O)(=O)NC(=O)C1(C)CCN1C(=O)C1(c2ccc(Cl)cc2)CC1 (configuration not stated)
Result: 3.44

Task: Output measured max response, negative = inhibition for this item: CCOC(=O)C1(C)CCCN(C(=O)c2ccc(F)c(Cl)c2)C1 (configuration not stated)
Result: -9.56

Task: Output measured max response, negative = inhibition for this item: "C[C@@H]1CN([C@H](C)CO)C(=O)c2cc(Br)cnc2O[C@@H]1CN(C)Cc1cncnc1"
Result: -13.8

Task: Output measured max response, negative = inhibition for this item: Cc1ccc(C(=O)N2CC(=O)Nc3ccc(F)cc3C2c2ccc(F)cc2)cc1 (configuration not stated)
Result: 1.6

Task: Output measured max response, negative = inhibition for this item: COc1ccc(-c2csc(C(O)c3cccc(Cl)c3)n2)cn1 (configuration not stated)
Result: -6.07

Task: Output measured max response, negative = inhibition for this item: COCCNC(=O)C1(C)CCCN(Cc2cccc(F)c2)C1 (configuration not stated)
Result: -4.61

Task: Output measured max response, negative = inhibition for this item: "CC(=O)Nc1ccc(S(=O)(=O)Nc2nccc(/C=C/c3ccccc3F)n2)cc1"
Result: -13.8

Task: Output measured max response, negative = inhibition for this item: "Cc1ccc(CNC(=O)Cc2cn(C)c3ccccc23)cc1"
Result: -3.92

Task: Output measured max response, negative = inhibition for this item: "COc1ccccc1-n1cn[nH]c1=S"
Result: -29.4

Task: Output measured max response, negative = inhibition for this item: "CCOC1=C2CN(S(=O)(=O)c3ccc(C)cc3)[C@H](c3cccs3)C[C@H]2[C@H]2C(=O)N(c3ccccc3)C(=O)[C@H]2C1"
Result: -0.0091

Task: Output measured max response, negative = inhibition for this item: Cc1ccc2c(c1)C(c1ccccc1)N(C(=O)c1ccc(F)cc1)CC(=O)N2 (configuration not stated)
Result: -0.372

Task: Output measured max response, negative = inhibition for this item: "O=C(Nn1c(SCc2ccc([N+](=O)[O-])cc2)nc2ccccc2c1=O)c1ccc(F)cc1"
Result: -14.4

Task: Output measured max response, negative = inhibition for this item: CCCCN1C(=O)C(CC(=O)NC(c2ccccc2)c2ccccc2)CC(C(=O)N2CCOCC2)=C1C (configuration not stated)
Result: -4.16

Task: Output measured max response, negative = inhibition for this item: "Nc1ncnc2c1ncn2[C@@H]1O[C@H](C(=O)NCC(F)(F)F)[C@@H](O)[C@H]1O"
Result: -5.72

Task: Output measured max response, negative = inhibition for this item: "CCCc1nc2sc3c(c2c(=O)n1NC(=O)CCCl)CCCC3"
Result: -16.7

Task: Output measured max response, negative = inhibition for this item: CCCCn1nnnc1C(c1cc2ccccc2o1)N(C)Cc1ccc(Cl)c(Cl)c1 (configuration not stated)
Result: 5.97

Task: Output measured max response, negative = inhibition for this item: "Cc1ccc(C(=O)N(CN2CCCC2=O)c2ccc(F)cc2)cc1"
Result: -5.15

Task: Output measured max response, negative = inhibition for this item: "Cc1cccc(C)c1NC(=O)CSc1nc2c([nH]1)c(=O)n(C)c(=O)n2C"
Result: -5.89

Task: Output measured max response, negative = inhibition for this item: CCOc1ccc(C2C(C#N)=C(N)N(N(C)C)C3=C2C(=O)CCC3)cc1 (configuration not stated)
Result: -4.98

Task: Output measured max response, negative = inhibition for this item: CCn1c(C(C)NC(=O)c2ccc(C)cc2)n[nH]c1=S (configuration not stated)
Result: -15.1

Task: Output measured max response, negative = inhibition for this item: CC(O)(c1cccc(F)c1)c1nc(-c2ccc3c(c2)OCO3)cs1 (configuration not stated)
Result: -0.065

Task: Output measured max response, negative = inhibition for this item: CC1(C(=O)NCc2ccco2)Cc2c(-c3ccc4c(c3)OCO4)ccnc2O1 (configuration not stated)
Result: -5.07

Task: Output measured max response, negative = inhibition for this item: "COc1ccccc1N1CCN(c2nc(C)cc(=O)[nH]2)CC1"
Result: -12.7

Task: Output measured max response, negative = inhibition for this item: N#CC1=C(N)N(c2ccccc2)C2=C(C(=O)CCC2)C1c1ccccc1 (configuration not stated)
Result: -0.426

Task: Output measured max response, negative = inhibition for this item: "CCOC(=O)[C@]12CCCC=C1N(Cc1cccc3ccccc13)C(=O)[C@H](CC(=O)NCC13CC4CC(CC(C4)C1)C3)C2"
Result: -3.19

Task: Output measured max response, negative = inhibition for this item: "COc1cccc(-n2c(=S)sc3c(=O)n(-c4ccccc4OC)c(SCC4OCCO4)nc32)c1"
Result: 4.69

Task: Output measured max response, negative = inhibition for this item: "CCOC(=O)c1ccn(S(=O)(=O)c2ccc(C)cc2)c1-c1ccccc1"
Result: -3.65

Task: Output measured max response, negative = inhibition for this item: "COc1cc2ccc(C(C)=O)c(O)c2cc1OC"
Result: -1.98
